- Tested on: B. asaccharolyticus
- Format: biochemical
- experimentalSetup: strain ATCC 27067; β-naphthylamine liberated after 60 minutes, 37° C.
Peptide text beside a SMILES is read from it. * marks the point of attachment. βNA = c1ccc2cc(N*)ccc2c1
Listed next: entries and their corresponding Aminopeptidase activity.
parameter: Aminopeptidase activity

[[record]]
molecule = "NC(=O)[C@@H](N)CCC(=O)O [α-Glu, α -glutamine]"
experimentalvalue = "0 nmol"

[[record]]
molecule = "Cl.N=C(N)NCCC[C@H](NC(=O)CNC(=O)CNC(=O)OCc1ccccc1)C(=O)Nc1ccc2ccccc2c1 [N-CBz-Gly-Gly-Arg]"
experimentalvalue = "0 nmol"

[[record]]
molecule = "C[C@H](N)C(=O)N[C@@H](C)C(=O)N[C@@H](Cc1ccccc1)C(=O)Nc1ccc2ccccc2c1 [Ala-Ala-Phe] (H-Ala-Ala-Phe-βNA)"
experimentalvalue = "0 nmol"

[[record]]
molecule = "CC(C)C[C@H](NC(=O)[C@@H]1CCCN1C(=O)CN)C(=O)Nc1ccc2ccccc2c1 [Gly-Pro-Leu] (H-Gly-Pro-Leu-βNA)"
experimentalvalue = "4 nmol"

[[record]]
molecule = "CC(C)C[C@H](N)C(=O)NCC(=O)O [Leu-Gly, Leucyl-glycine] (H-Leu-Gly-OH)"
experimentalvalue = "51 nmol"

[[record]]
molecule = "CSCCC(N)C(=O)Nc1ccc2ccccc2c1 (racemic)"
experimentalvalue = "2 nmol"


* * *

- Tested on: Actinobacillus actinomycetemcomitans
- Format: biochemical
- experimentalSetup: strain 75; β-naphthylamine liberated after 60 minutes, 37° C.
Peptide text beside a SMILES is read from it. * marks the point of attachment. βNA = c1ccc2cc(N*)ccc2c1
parameter: Aminopeptidase activity

[[record]]
compound = "C[C@H](N)C(=O)N[C@@H](C)C(=O)N[C@@H](Cc1ccccc1)C(=O)Nc1ccc2ccccc2c1 [Ala-Ala-Phe] (H-Ala-Ala-Phe-βNA)"
experimentalvalue = "1 nmol"

[[record]]
compound = "CC(C)C[C@H](NC(=O)[C@@H]1CCCN1C(=O)CN)C(=O)Nc1ccc2ccccc2c1 [Gly-Pro-Leu] (H-Gly-Pro-Leu-βNA)"
experimentalvalue = "1 nmol"

[[record]]
compound = "Cl.N=C(N)NCCC[C@H](NC(=O)CNC(=O)CNC(=O)OCc1ccccc1)C(=O)Nc1ccc2ccccc2c1"
experimentalvalue = "0 nmol"

[[record]]
compound = "CSCCC(N)C(=O)Nc1ccc2ccccc2c1 (racemic)"
experimentalvalue = "0 nmol"

[[record]]
compound = "CC(C)C[C@H](N)C(=O)NCC(=O)O [Leu-Gly, Leucyl-glycine] (H-Leu-Gly-OH)"
experimentalvalue = "0 nmol"

[[record]]
compound = "NC(=O)[C@@H](N)CCC(=O)O"
experimentalvalue = "0 nmol"


* * *

- Test system: Lactobacillus casei
- assayComment: Aminopeptidase activity on β-naphthylamide substrates
- Assay type: biochemical
- experimentalSetup: strain ATCC 11578; β-naphthylamine liberated after 60 minutes, 37° C.
Peptide text beside a SMILES is read from it. * marks the point of attachment. βNA = c1ccc2cc(N*)ccc2c1
parameter: Aminopeptidase activity (nmol)

[[record]]
molecule = "CC(C)C[C@H](N)C(=O)NCC(=O)O [Leu-Gly, Leucyl-glycine] (H-Leu-Gly-OH)"
studysystem = "Lactobacillus casei"
parameter = "Aminopeptidase activity"
unitofmeasure = "nmol"
experimentalvalue = 2

[[record]]
molecule = "N=C(N)NCCC[C@H](NC(=O)[C@@H](N)CCCNC(=N)N)C(=O)O [Arg-Arg, Arginyl-arginine] (H-Arg-Arg-OH)"
studysystem = "Lactobacillus casei"
parameter = "Aminopeptidase activity"
unitofmeasure = "nmol"
experimentalvalue = 1

[[record]]
molecule = "N=C(N)NCCC[C@H](NC(=O)CN)C(=O)O [Gly-Arg, Glycyl-arginine] (H-Gly-Arg-OH)"
studysystem = "Lactobacillus casei"
parameter = "Aminopeptidase activity"
unitofmeasure = "nmol"
experimentalvalue = 0

[[record]]
molecule = "Cl.N=C(N)NCCC[C@H](NC(=O)CNC(=O)CNC(=O)OCc1ccccc1)C(=O)Nc1ccc2ccccc2c1"
studysystem = "Lactobacillus casei"
parameter = "Aminopeptidase activity"
unitofmeasure = "nmol"
experimentalvalue = 0

[[record]]
molecule = "C[C@H](N)C(=O)N[C@@H](C)C(=O)N[C@@H](Cc1ccccc1)C(=O)Nc1ccc2ccccc2c1 [Ala-Ala-Phe] (H-Ala-Ala-Phe-βNA)"
studysystem = "Lactobacillus casei"
parameter = "Aminopeptidase activity"
unitofmeasure = "nmol"
experimentalvalue = 3

[[record]]
molecule = "CSCCC(N)C(=O)Nc1ccc2ccccc2c1 (racemic)"
studysystem = "Lactobacillus casei"
parameter = "Aminopeptidase activity"
unitofmeasure = "nmol"
experimentalvalue = 9

[[record]]
molecule = "NC(=O)[C@@H](N)CCC(=O)O"
studysystem = "Lactobacillus casei"
parameter = "Aminopeptidase activity"
unitofmeasure = "nmol"
experimentalvalue = 3

[[record]]
molecule = "CC(C)C[C@H](NC(=O)[C@@H]1CCCN1C(=O)CN)C(=O)Nc1ccc2ccccc2c1 [Gly-Pro-Leu] (H-Gly-Pro-Leu-βNA)"
studysystem = "Lactobacillus casei"
parameter = "Aminopeptidase activity"
unitofmeasure = "nmol"
experimentalvalue = 0

